Assay: gradient 5% acetonitrile 3 min, to 50% in 2 min, to 85% in 15 min, held 3 min, 100 µL/min
Conditions: column: Zorbax Extend-C18 2.1 x 50 mm; eluents: water / acetonitrile, 0.1% formic acid
EXPERIMENTAL_READOUT: RP-LC retention time (s)
Quick reminder: number only, in s, skip the unit.

# count of solved cases: 5
COMPOUND	RP-LC retention time, s
CCn1cc(-c2nc(C)c(C(=O)Nc3ccc(F)cc3)s2)c2cccnc21	999
Fc1cccc(-c2noc(Cc3nnc(-c4ccc(Cl)cc4)o3)n2)c1	995
Cc1nc(-c2ccc(N3CCN(C(=O)c4cc5ccccc5[nH]4)CC3)nc2)sc1C	924
Cc1cc(C)cc(NC(=O)C2CCCN2S(C)(=O)=O)c1 (centres undefined)	782
CCCC(=O)N1CC(c2nc(-c3ccccc3)no2)C2(CCOCC2)C1 (centres undefined)	850

Request: Suppose we examine the compound O=C(c1ccc(F)c(F)c1)N1CCN(c2nc(CN3CCOCC3)cs2)CC1 ; what RP-LC retention time value has been reported?
Result: 617

Request: Suppose we examine the compound CCn1cc(-c2ccc(F)cc2)cc1C(=O)N1CCCC1 ; what RP-LC retention time value has been reported?
Result: 959

Request: Suppose we examine the compound COc1cc(-c2nc3c(C)cccn3c2Nc2ccc(C)cc2)ccc1O ; what RP-LC retention time value has been reported?
Result: 684

Request: Suppose we examine the compound Cc1cc(C(=O)NCCc2ccco2)c2c(=O)n(C)c(=O)n(C)c2n1 ; what RP-LC retention time value has been reported?
Result: 688

Request: Suppose we examine the compound O=C([C@@H]1OCC(=O)N(C2CC2)[C@H]1c1ccccc1)N1CCN(c2ccccc2)CC1 ; what RP-LC retention time value has been reported?
Result: 834

Request: Suppose we examine the compound COc1ccc(C2C(C(=O)N3CCOCC3)=C(C)NC3=C2C(=O)CCC3)cc1Br (centres undefined) ; what RP-LC retention time value has been reported?
Result: 653

Request: Suppose we examine the compound CCOc1ccccc1-c1noc(Cn2c(=O)n(CCCOC)c(=O)c3ccccc32)n1 ; what RP-LC retention time value has been reported?
Result: 1060

Request: Suppose we examine the compound CCOC(=O)COc1cc(-c2ccc(F)cc2)nc2ccc(NC(=O)COc3ccccc3)cc12 ; what RP-LC retention time value has been reported?
Result: 924

====

Experiment: gradient 5% acetonitrile 3 min, to 50% in 2 min, to 85% in 15 min, held 3 min, 100 µL/min
Conditions: column: Zorbax Extend-C18 2.1 x 50 mm; eluents: water / acetonitrile, 0.1% formic acid
Rule: RP-LC retention time under 800 s gives not met, otherwise met.

Answered cases to consult:
MOLECULE	LABEL
COc1ccc(C2=Nc3ccccc3N(CC(=O)Nc3cc(OC)ccc3OC)C(=O)C2)cc1	met
CCc1nc(OCC(=O)Nc2ccccc2Br)c2ccccc2n1	met
CC1CCN(c2ccc(-c3noc(CN(C)Cc4ccccc4)n3)cn2)CC1	met
CCCn1c(CCNC(=O)c2cccc(Cl)c2)nc2cccnc21	not met
COc1ccc(OCc2noc(CNC(=O)Cn3cnc4ccccc43)n2)cc1	not met

Please look at the following molecule next.
Request: Hello, I need to know if Cc1nn2c(=O)cc(CSc3nnc(-c4ccc5c(c4)OCO5)o3)nc2s1 has measured RP-LC retention time not below 800 s. Thanks!
Result: not met

These entries and their values trace back to the METLIN SMRT retention time set (Domingo-Almenara et al. 2019).
